# Target of assay: LHRH rat pituitary receptor (Rattus norvegicus)
# Construct: from tissue; host or cells: rat pituitary
# Sequence (P30969 whole entry): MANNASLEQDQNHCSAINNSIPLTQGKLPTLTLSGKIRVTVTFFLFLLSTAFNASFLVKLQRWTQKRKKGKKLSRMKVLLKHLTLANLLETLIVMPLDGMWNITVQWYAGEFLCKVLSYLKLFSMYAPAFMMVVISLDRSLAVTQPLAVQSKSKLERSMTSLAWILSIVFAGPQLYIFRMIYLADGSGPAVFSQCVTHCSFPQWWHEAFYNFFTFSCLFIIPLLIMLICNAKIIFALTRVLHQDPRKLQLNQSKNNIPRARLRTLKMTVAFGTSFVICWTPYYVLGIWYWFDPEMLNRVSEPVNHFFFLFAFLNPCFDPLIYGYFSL
# Experiment notes: LHRH rat pituitary receptor binding (pKI)
# Test conditions: negative logarithm of the equilibrium dissociation constants, Table 1, read-out: receptor binding affinity (pKI) (converted)
Measure name: Ki (nM)
Number only, in nM; omit the unit.

Illustrative cases are given below, each with its answer.
CC[C@H]1OC(=O)[C@H](C)[C@@H](O[C@H]2C[C@@](C)(OC)[C@@H](O)[C@H](C)O2)[C@H](C)[C@@H](O[C@@H]2O[C@H](C)C[C@H](N(C)C3CCC3)[C@H]2O)[C@](C)(OC)C[C@@H](C)C(=O)[C@H](C)[C@H]2N(CCc3ccc(F)c(Cl)c3)C(=O)O[C@]12C [Example 27]: 1.55
CC[C@H]1OC(=O)[C@H](C)[C@@H](O[C@H]2C[C@@](C)(OC)[C@@H](O)[C@H](C)O2)[C@H](C)[C@@H](O[C@@H]2O[C@H](C)C[C@H](N(C)CCC(C)SC)[C@H]2O)[C@](C)(OC)C[C@@H](C)C(=O)[C@H](C)[C@H]2N(CCc3ccc(Cl)c(Cl)c3)C(=O)O[C@]12C (stereo partly drawn) [Example 93]: 5.01

Would you kindly look at the next entry?
-- ask For the molecule CC[C@H]1OC(=O)[C@H](C)[C@@H](O[C@H]2C[C@@](C)(OC)[C@@H](O)[C@H](C)O2)[C@H](C)[C@@H](O[C@@H]2O[C@H](C)C[C@H](N(C)C3CCCC3)[C@H]2O)[C@](C)(OC)C[C@@H](C)C(=O)[C@H](C)[C@H]2N(CCc3ccc(OC)cc3)C(=O)O[C@]12C [Example 40] , what Ki is on record?
-- reply 5.75
